All values here come from patent US11999727B2.

- assay target: PRMT5 (Homo sapiens, UniProt O14744)
- Construct: purchased Viva (custom protein)
- Sequence (O14744 whole entry): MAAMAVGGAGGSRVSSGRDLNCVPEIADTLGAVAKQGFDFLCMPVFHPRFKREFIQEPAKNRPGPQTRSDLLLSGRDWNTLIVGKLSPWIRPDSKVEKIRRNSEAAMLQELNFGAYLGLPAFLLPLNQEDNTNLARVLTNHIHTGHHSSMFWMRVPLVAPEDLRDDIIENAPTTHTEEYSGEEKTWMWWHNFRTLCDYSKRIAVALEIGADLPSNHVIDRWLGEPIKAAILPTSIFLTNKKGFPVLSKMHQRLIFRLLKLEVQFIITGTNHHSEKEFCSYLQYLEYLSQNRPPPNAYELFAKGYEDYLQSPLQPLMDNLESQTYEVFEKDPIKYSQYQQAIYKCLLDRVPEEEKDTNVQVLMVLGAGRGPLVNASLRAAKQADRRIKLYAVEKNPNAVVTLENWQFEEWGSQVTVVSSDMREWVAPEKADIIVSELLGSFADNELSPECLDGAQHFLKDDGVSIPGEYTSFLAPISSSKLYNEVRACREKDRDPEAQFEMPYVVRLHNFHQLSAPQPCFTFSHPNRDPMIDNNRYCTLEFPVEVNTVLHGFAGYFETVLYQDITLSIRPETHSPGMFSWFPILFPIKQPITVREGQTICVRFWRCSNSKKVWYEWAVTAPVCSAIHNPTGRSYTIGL
- Sequence (Q9BQA1 whole entry partner): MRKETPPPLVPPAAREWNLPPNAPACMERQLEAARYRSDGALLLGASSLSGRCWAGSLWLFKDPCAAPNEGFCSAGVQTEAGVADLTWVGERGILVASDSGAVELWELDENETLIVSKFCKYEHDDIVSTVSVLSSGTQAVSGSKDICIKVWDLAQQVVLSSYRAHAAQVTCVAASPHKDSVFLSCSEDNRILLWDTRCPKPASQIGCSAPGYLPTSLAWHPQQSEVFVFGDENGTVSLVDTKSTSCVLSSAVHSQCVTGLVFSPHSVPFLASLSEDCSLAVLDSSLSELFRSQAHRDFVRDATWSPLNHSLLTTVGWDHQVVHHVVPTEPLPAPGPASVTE
- protocol notes: PRMT5 biochemical IC50 assay with SAM as cofactor
- condition: PRMT5, SAM as cofactor; read-out: SAM IC50
observed property: IC50

Reference set (2 entries):
- molecule: "C[C@H]1CC[C@H](c2ccc3sc(C4CCN(C)CC4)nc3c2)N(C(=O)C(=O)Nc2cnc(N)c([C@@H]3CCOC3)c2)C1 (single isomer, unassigned)"
  assay target: "PRMT5 (Homo sapiens, UniProt O14744)"
  observed property: "IC50"
  result: "< 50 nM"
- molecule: "Cc1cc(NC(=O)C(=O)N2C[C@H](C)CC[C@H]2c2cc(Cl)cc(Cl)c2)cnc1N (single isomer, unassigned)"
  assay target: "PRMT5 (Homo sapiens, UniProt O14744)"
  observed property: "IC50"
  result: "50 to 500 nM"

Entry Cc1cc(NC(=O)C(=O)N2C[C@H](C)CC[C@H]2c2cncc(Cl)c2)cnc1N (racemic) has what IC50?
> 500 nM
